- System: ATP;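 note: ATP exposure 15 min at 22 °C before imaging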
- Test Summary: switch fluorescence ratio, 500 uM ATP over buffer (Cy3 cluster intensity, sum of 5 cycles each) (fold (ratio)); higher = stronger signal-on switching upon ATP binding; sequences stand for … in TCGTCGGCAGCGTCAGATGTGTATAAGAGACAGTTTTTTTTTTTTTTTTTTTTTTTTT…TC
- Measurement Setup: aptamer strand: ATP DNA aptamer (quencher-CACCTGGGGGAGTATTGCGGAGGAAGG + anchor), 100 nM annealed; ATP concentration: 500 uM
Recorded Endpoint: switch fluorescence ratio

CTCGACATTT: 1.02
GGTGTTTAAT: 0.979
GGCGGCTGAG: 1
TTTGAACGGG: 1.01
GGGCGGTGTC: 1.01
ATGCCAAAGG: 1.01
TGGTATAGGT: 0.994
GGGAGGATCG: 0.993
AGTGGTACCG: 0.99
GCTTTACAGA: 1
TTTGGATTAG: 0.975
TTATAATGGT: 1.02
TGAAGGTAAA: 1.02
ACTATTCGT: 0.99
GGGTGTTCTT: 0.997
TGGATGTTTG: 1.02
GAGTTTGTCC: 0.998
TTAGTTGTTT: 0.964
AGTAAAGGCC: 1.02
TAAAGGAGGT: 1.01
GCTAAATCGG: 1.03
CTTGGTTTCT: 1.03
GGAGGTAGGG: 0.999
TTGTAGTATC: 1
CCCGGGGGGG: 1.1
TCGGTTTGGA: 1.02
AGAAGGGCA: 0.983
TGCAGGGGCG: 1.04
TGGAGGCTTT: 1.01
ATATGTATGA: 1
AGGGGACTAT: 1
TTGGAGGTGG: 0.959
TCGGGGTTGT: 1.01
TTTTATGTTA: 0.977
CTGAGTTTAT: 0.997
GAACTGGGGG: 1
AAATTGTAAA: 0.969
ATCCCCGGCC: 1.03
TATAAGGGGT: 0.986
TGCGGTGGGG: 0.976
TTACTCTATA: 1.06
CCACCTTAAG: 1.04
CTTAGAAGAT: 0.983
TTATGTAGGT: 0.98
CTACGTCATT: 1.41
GATTAGGGGT: 0.997
ATTAGTAGCA: 1
CTGGGGAGCG: 0.954
TTTTAATTAT: 1.05
TTTTTATAAT: 1.01
CTGGTATAGG: 0.977
CAAGGGGGTT: 1.02
TACTGTGAGC: 1.02
AAGTGTGACT: 1
GCTTTGGCTT: 1
GCGCTGTGTG: 1
CCCCGTTAGT: 1.01
ACATCGTCAT: 1.01
GAGTGGAGAC: 0.977
AAGCCGAGGG: 1.02
GTAGTATTGG: 0.982
TTCTCGTACA: 1.19
TAGGAGGGA: 1
GTTTATTGAA: 1.02
GTTTGGAGTG: 1
TTTTTTATTG: 0.989
ATGTATAGGC: 0.962
GTTTGGGGGT: 1.04
TTAATGGGA: 0.995
GATACGCCAC: 2.11
TCTAATAGCC: 1.03
GAAAGGTTGG: 0.993
TCGTTTAGCA: 1.07
ATGCGGGTTC: 1.01
TGGAGTTACT: 0.994
GTTAGGCGGT: 1.01
GGGTGGTGTT: 1.01
